# Test system: canine glioma cells
# experiment_notes: thymidine incorporation (I50%) of canine glioma cells
# Type: cell-based
# measurement_conditions: Canis lupus familiaris, Glioma cell; 72 h, second four lines; read-out: I50% (thymidine incorporation)
readout_kind: IC50 (nM)
Give the quantity in nM, number only.

What the record says about CC(C)OC(=O)C[C@H](O)C[C@@H](O)/C=C/c1c(C(C)C)nc(-c2ccccc2)n1-c1ccc(F)cc1 (relative stereo) [Compound IIe'] : IC50 is 30

----------
# target_under_test: HMGCoA reductase (Rattus norvegicus)
# Sequence (P51639 whole entry): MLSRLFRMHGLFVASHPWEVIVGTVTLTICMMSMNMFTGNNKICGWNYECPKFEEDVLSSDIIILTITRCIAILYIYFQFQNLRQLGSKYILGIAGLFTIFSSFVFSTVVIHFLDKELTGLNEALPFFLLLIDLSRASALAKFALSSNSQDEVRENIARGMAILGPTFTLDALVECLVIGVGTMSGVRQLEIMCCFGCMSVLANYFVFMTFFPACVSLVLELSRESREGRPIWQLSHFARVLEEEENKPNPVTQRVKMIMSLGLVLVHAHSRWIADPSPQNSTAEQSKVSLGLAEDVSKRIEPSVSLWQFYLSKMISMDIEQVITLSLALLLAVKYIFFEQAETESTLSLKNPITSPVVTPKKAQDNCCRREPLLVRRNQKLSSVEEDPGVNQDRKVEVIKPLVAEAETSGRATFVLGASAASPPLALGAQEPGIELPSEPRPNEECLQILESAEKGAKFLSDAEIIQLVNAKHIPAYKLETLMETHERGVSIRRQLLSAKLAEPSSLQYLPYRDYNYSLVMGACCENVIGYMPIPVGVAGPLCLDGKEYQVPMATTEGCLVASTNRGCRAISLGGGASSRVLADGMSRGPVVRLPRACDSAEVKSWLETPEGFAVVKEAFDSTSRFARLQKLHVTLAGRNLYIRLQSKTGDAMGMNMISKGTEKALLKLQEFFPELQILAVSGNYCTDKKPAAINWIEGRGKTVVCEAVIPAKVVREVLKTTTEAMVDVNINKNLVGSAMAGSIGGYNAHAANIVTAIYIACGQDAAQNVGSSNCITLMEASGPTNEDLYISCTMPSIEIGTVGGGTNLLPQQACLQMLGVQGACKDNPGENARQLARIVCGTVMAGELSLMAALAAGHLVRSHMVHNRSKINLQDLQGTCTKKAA
# experiment_notes: inhibition of rat liver HMGCoA reductase activity
# Assay type: biochemical
# Set-up: from tissue; host or cells: rat liver
# measurement_conditions: read-out: IC50 HMG-CoA reductase
# From the text: reductase activity; data obtained according to Example IA.
readout_kind: pIC50
Bear in mind: pIC50 is minus log10 of a mol/L concentration; give just that figure.

What the record says about CC(C)OC(=O)C[C@H](O)C[C@@H](O)/C=C/c1c(C(C)C)nc(-c2ccccc2)n1-c1ccc(F)cc1 (relative stereo) : pIC50 is 8.52
